// data source = patent US20180099931A1

Measured EC50 accompanies every entry in the list below.
testTarget: F508delCFTR (Homo sapiens, UniProt P13569, DEL508-508)
Construct: expressed in transfected cells; host or cells: CFBE41o- human lung-derived epithelial cells (CFBE4lo-F508delCFTR-HRP), doxycycline-inducible
Sequence (P13569 with tags, fused parts or gaps DEL508-508): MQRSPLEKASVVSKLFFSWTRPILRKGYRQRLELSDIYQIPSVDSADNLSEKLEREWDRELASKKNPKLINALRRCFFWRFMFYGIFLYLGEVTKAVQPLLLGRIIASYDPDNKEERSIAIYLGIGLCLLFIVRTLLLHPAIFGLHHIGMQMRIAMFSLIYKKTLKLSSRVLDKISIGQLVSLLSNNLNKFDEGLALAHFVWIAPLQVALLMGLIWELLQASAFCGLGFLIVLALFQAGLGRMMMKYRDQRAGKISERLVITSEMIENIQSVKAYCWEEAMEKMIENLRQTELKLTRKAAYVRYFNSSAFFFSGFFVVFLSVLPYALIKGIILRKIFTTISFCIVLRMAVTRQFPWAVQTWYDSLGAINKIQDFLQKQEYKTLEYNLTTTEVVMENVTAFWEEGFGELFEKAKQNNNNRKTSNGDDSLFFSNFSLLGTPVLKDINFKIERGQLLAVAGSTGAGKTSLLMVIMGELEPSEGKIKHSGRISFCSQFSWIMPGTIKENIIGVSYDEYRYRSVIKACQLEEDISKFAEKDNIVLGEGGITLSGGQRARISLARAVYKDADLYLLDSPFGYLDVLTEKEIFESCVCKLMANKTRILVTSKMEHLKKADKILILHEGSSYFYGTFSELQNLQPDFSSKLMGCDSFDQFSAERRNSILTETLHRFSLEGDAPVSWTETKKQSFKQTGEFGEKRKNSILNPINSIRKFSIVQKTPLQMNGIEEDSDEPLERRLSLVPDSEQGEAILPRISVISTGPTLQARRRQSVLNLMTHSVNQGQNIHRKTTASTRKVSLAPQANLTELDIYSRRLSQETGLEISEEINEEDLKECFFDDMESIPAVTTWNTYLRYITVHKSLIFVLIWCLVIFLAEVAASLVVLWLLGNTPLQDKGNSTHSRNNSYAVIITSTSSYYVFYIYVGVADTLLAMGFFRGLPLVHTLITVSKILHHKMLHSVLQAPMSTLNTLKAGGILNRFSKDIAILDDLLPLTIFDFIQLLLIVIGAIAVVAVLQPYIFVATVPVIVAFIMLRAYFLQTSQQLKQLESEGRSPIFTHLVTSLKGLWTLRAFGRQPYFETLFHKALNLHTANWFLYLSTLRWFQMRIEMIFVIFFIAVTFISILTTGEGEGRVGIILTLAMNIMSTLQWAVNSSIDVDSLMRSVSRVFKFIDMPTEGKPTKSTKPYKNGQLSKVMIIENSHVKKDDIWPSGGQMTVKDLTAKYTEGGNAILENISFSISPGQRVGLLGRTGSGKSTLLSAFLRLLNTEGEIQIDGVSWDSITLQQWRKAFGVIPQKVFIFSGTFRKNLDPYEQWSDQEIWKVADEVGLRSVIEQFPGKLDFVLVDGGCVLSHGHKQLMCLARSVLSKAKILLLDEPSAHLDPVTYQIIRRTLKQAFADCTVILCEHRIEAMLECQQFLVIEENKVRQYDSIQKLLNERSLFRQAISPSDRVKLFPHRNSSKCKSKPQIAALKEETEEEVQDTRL
assay: Cell Surface Expression-Horse Radish Peroxidase (CSE-HRP) Assay
Format: cell-based
measurementSetup: CSE-HRP; with co-corrector (2 μM of 3-[(2R,4R)-4-({[1-(2,2-difluoro-1,3-benzodioxol-5-yl)cyclopropyl]carbonyl}amino)-7-methoxy-3,4-dihydro-2H-chromen-2-yl]benzoic acid); read-out: EC50 (with co-corrector)
reportedMetric: EC50

1) CC(C)COc1ccccc1CN[C@@H]1[C@@H](C(C)(C)C)[C@H](C(=O)O)N(C(=O)C2CCCCC2)[C@@H]1c1ccccc1 (racemic); 1000 to 10000 nM
2) CC(C)(C)[C@H]1[C@H](Nc2cc(C(F)(F)F)cc(C(F)(F)F)c2)[C@H](c2ccccc2)N(C(=O)C2CCCCC2)[C@@H]1C(=O)O; < 1000 nM
3) COc1ccc(C(C)(C)C)cc1CN[C@H]1[C@H](C(C)(C)C)[C@@H](C(=O)O)N(C(=O)[C@@H]2CCCO2)[C@H]1c1cccnc1N(C)C; 1000 to 10000 nM
4) COc1ccc(C(C)(C)C)cc1CN[C@H]1[C@H](C(C)(C)C)[C@@H](C(=O)O)N(C(=O)Cc2ccccc2)[C@H]1c1ccccc1; < 1000 nM
5) COc1ccc(C(C)C)cc1CN[C@H]1[C@H](C(C)(C)C)[C@@H](C(=O)O)N(C(=O)OC(C)C)[C@H]1c1ccccc1; 1000 to 10000 nM
6) COc1ccc(-c2ccoc2)cc1CN[C@H]1[C@H](C(C)(C)C)[C@@H](C(=O)O)N(C(=O)C2CCCCC2)[C@H]1c1ccccc1; < 1000 nM
7) COc1cc(C(F)(F)F)ccc1CN[C@H]1[C@H](C(C)(C)C)[C@@H](C(=O)O)N(C(=O)C2CCCCO2)[C@H]1c1cccnc1OC (relative stereo); 1000 to 10000 nM
8) COc1cc(C#N)ccc1CN[C@@H]1[C@@H](C(C)(C)C)[C@H](C(=O)O)N(C(=O)C2CCCCC2)[C@@H]1c1ccccc1 (racemic); 1000 to 10000 nM
9) COc1ncc(C2CCC2)cc1CN[C@H]1[C@H](C(C)(C)C)[C@@H](C(=O)O)N(C(=O)[C@@H]2CCCO2)[C@H]1c1ccccc1C; 1000 to 10000 nM
10) COCc1ccc(OC)c(CN[C@H]2[C@H](C(C)(C)C)[C@@H](C(=O)O)N(C(=O)C3CCCCC3)[C@H]2c2ccccc2)c1; 1000 to 10000 nM
11) COc1ccc(C(C)(C)C)cc1CN[C@H]1[C@H](C(C)(C)C)[C@@H](C(=O)O)N(C(=O)[C@@H](C)OC)[C@H]1c1ccccc1; 1000 to 10000 nM
12) COc1ccc(-c2cnn(C3CCC3)c2)cc1CN[C@H]1[C@H](C(C)(C)C)[C@@H](C(=O)O)N(C(=O)C2CCCCC2)[C@H]1c1ccccc1; 1000 to 10000 nM

----------
testTarget: F508delCFTR (Homo sapiens, UniProt P13569, DEL508-508)
Construct: expressed in transfected cells; host or cells: CFBE41o- human lung-derived epithelial cells (CFBE4lo-F508delCFTR-HRP), doxycycline-inducible
assay: Cell Surface Expression-Horse Radish Peroxidase (CSE-HRP) Assay;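 on Maximum % activity (with co-corrector): co-corrector and positive control are both the same reference corrector at 2 µM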
Assay type: cell-based
measurementSetup: CSE-HRP; with co-corrector (2 μM); maximum at any tested concentration, normalized to on-plate positive control
reportedMetric: Maximum % activity (with co-corrector)

1) COc1ccc(C(C)(C)C)cc1CN[C@H]1[C@H](C(C)(C)C)[C@@H](C(=O)O)N(C(=O)Cc2cccc(O)c2)[C@H]1c1ccccc1; +++ (≥350)
2) COc1cc(C(C)(C)C)ccc1CN[C@H]1[C@H](C(C)(C)C)[C@@H](C(=O)O)N(C(=O)C2CCCCC2)[C@H]1c1ccccc1OC(F)F; +++ (≥350)
3) COc1ccc(C(C)(C)C)cc1CN[C@H]1[C@H](C(C)(C)C)[C@@H](C(=O)O)N(C(=O)C2CCCCS2(=O)=O)[C@H]1c1ccccc1 (stereo partly drawn); +++ (≥350)
4) COc1ncc(C(C)C)cc1CN[C@H]1[C@H](C(C)(C)C)[C@@H](C(=O)O)N(C(=O)C2CCCCC2)[C@H]1c1ccccc1; +++ (≥350)
5) COc1ncc(C2CC3CCC2C3)cc1CN[C@H]1[C@H](C(C)(C)OC)[C@@H](C(=O)O)N(C(=O)C2CCCCC2)[C@H]1c1ccccc1 (stereo partly drawn); +++ (≥350)
6) COCc1cc(C)nc(N[C@H]2[C@H](C(C)(C)C)[C@@H](C(=O)O)N(C(=O)C3CCCCC3)[C@H]2c2ccccc2)c1C#N; ++ (≥150 and <350)
7) COc1cc2c(cc1CN[C@H]1[C@H](C(C)(C)C)[C@@H](C(=O)O)N(C(=O)[C@@H]3CCCCO3)[C@H]1c1cccc3c1OCC3)CCCC2; +++ (≥350)
8) COc1ccc(C(F)(F)F)cc1CN[C@H]1[C@H](C(C)(C)C)[C@@H](C(=O)O)N(C(=O)[C@@H]2CCCCO2)[C@H]1c1cccc2c1OCC2; +++ (≥350)
9) COc1ccc(C(C)C)cc1CN[C@@H]1[C@@H](C(C)(C)C)[C@H](C(=O)O)N(C(=O)OC(C)C)[C@@H]1c1ccccc1 (racemic); +++ (≥350)
10) COc1ccc(C(C)(C)C)cc1CN[C@H]1[C@H](C(C)(C)C)[C@@H](C(=O)O)N(C(=O)CC2CCC(C)(C)OC2)[C@H]1c1ccccc1 (stereo partly drawn); +++ (≥350)
11) COc1ccc(C(C)(C)C)cc1CN[C@H]1[C@H](C(C)(C)C)[C@@H](C(=O)O)N(C(=O)CC2CC(=O)c3ccccc32)[C@H]1c1ccccc1 (stereo partly drawn); +++ (≥350)
12) COc1ccc(C(F)(F)F)cc1CN[C@@H]1[C@@H](C(C)(C)C)[C@H](C(=O)O)N(C(=O)[C@@H](C)Oc2ccccc2)[C@@H]1c1ccccc1 (racemic); ++ (≥150 and <350)
